Reported Endpoint: melting point

Here is how some compounds turned out for melting point.
>>> reported_value("CCc1cccc(-c2nc(CC)sc2-c2ccnc(NC(C)=O)c2)c1 [H 82-7]")
"112 to 113 °C"
>>> reported_value("Cc1cccc(-c2nc(-c3ccccc3Cl)sc2-c2ccnc(NCCc3ccccc3)c2)c1 [D 19-15]")
"113 to 114 °C"
>>> reported_value("CSCc1nc(-c2cccc(Cl)c2)c(-c2ccnc(N)c2)s1 [H 101-1]")
"111 to 112 °C"
>>> reported_value("Cc1cccc(-c2nc(-c3ccc(F)cc3)sc2-c2ccnc(NC(=O)CCc3ccccc3)c2)c1 [D 16-12]")
"169 to 171 °C"

Fill in the blank: the reported melting point of Cc1cccc(-c2nc(CCc3ccccc3)sc2-c2ccnc(C)c2)c1 [H 14-8] is ____.
64 to 65 °C

Fill in the blank: the reported melting point of Cc1cc(-c2sc(NC(=O)c3cccnc3)nc2-c2ccc(F)cc2)ccn1 [H 42-7] is ____.
261 to 262 °C

Fill in the blank: the reported melting point of CCOC(=O)Cc1nc(-c2cccc(Cl)c2)c(-c2ccnc(NC(C)=O)c2)s1 [H 103-2] is ____.
99 to 100 °C

Fill in the blank: the reported melting point of Cc1cccc(-c2nc(-c3ccccc3Cl)sc2-c2ccnc(NC(=O)CCc3ccccc3)c2)c1 [D 16-14] is ____.
156 to 158 °C

Fill in the blank: the reported melting point of Cc1cccc(N2C=C(c3cc(C)nc(C)c3)SC2N)c1 (stereo not drawn) [H 7-6] is ____.
214 to 216 °C
